Where do the numbers come from? From ChEMBL document CHEMBL1201862.

# System: UO-31
# method.summary: NCI tumour cell line growth inhibition, 48 h
The source made the active and inactive calls. Rule as the data show it: active = GI50 up to about 1.1 µM and inactive = higher.
Permitted responses: active, inactive

                                   compound  class_assignment
0  CC1=C(C(=O)NCc2ccccc2)C(c2ccc(Cl)c(Cl)c2)C(C(=O)NCc2ccccc2)=C(C)N1          inactive

--- query ---
In: Could you kindly confirm the outcome this assay logged for COc1cc2c(cc1OC)C1c3ccccc3C(C#N)(C2)N(C(=O)c2ccccc2)C1O (stereo unspecified) ?
Out: inactive

* * *

# Tested on: NCI-H226
# method.summary: NCI tumour cell line growth inhibition, 48 h
Activity calls are given as the source filed them. No stated cut-off is given here; in the data, active = GI50 up to about 1.1 µM and inactive = higher.
Choose the fitting class; nothing outside true (active), false (inactive) is accepted.

Reference set, count: 5
compound	class.assignment
Cc1c(NC(=S)N/N=C\C(=N/NC(=S)Nc2c(C)n(C)n(-c3ccccc3)c2=O)c2ccccc2)c(=O)n(-c2ccccc2)n1C	false
COc1ccc2c(c1)[n+]([O-])c(-c1cccc(Cl)c1)c(N)[n+]2[O-]	false
Cc1ccc(S(=O)(=O)NC(=O)C2=C(c3ccccc3)[N-]N(C)c3nc4cccc[n+]4nc32)cc1	false
O=C1/C(=C/c2ccc(Cl)cc2)NC(=S)N1CN1CCOCC1	false
Cc1ccc(C)n1-c1ccccc1C1C=Cn2c3c1c(=O)c(OC(C)C)c(OC(C)C)c-3n[nH]c2=O (stereo unspecified)	false

In: State the result this test recorded for CN(C)CCCOC(=O)C(c1ccccc1)C1(O)CCSCC1 (stereo unspecified) .
Out: false

In: Look up the recorded call for NC(=O)Cn1c(=O)oc2cc(C(=O)CN3CCOCC3)ccc21 in this test.
Out: false

In: Please let me know the test result on file for OC(C/C=N/N=C/CC(O)(C(F)(F)Cl)C(F)(F)Cl)(C(F)(F)Cl)C(F)(F)Cl .
Out: false

In: State the result this test recorded for CO[C@H]1c2cccc3cccc(c23)[C@@H]1n1[nH]c(=O)n(C(C)(C)C)c1=O .
Out: false

In: Assay result, entry Cc1cn2c(/C=N/NC(=N)N)c(-c3ccc(Cl)c([N+](=O)[O-])c3)nc2s1 — outcome?
Out: false

In: Query: recorded result category for N#CCCN(CCC#N)c1ccc(/C=C2\N=C(c3ccccc3)N(c3ccc(F)cc3)C2=O)cc1 in this test
Out: false
